Test system: biotinyl-Phe-oxazolone
Assay: self-aminoacylation, catalytic enhancement (BFO) (fold over background); higher = more active; k-Seq, kA / k0A0; sequences stand for … in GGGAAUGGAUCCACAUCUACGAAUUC…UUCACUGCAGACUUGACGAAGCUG
Fewer inactive variants are shown than the library holds.
experimental endpoint: self-aminoacylation
Number only, no unit.

Observe how each entry below is paired with its result.
ordered residues: AUUACCCUGGUGGUCGAGUGA [Fam2.1 aminoacylation ribozyme variant]
experimental endpoint: self-aminoacylation
numeric result: 12.8

ordered residues: AUGUUUGCUAAUAGUCGCAUG [Fam3.1 aminoacylation ribozyme variant]
experimental endpoint: self-aminoacylation
numeric result: 1.52

ordered residues: CUUACCCUGGUCAUCGAGUGG [Fam2.1 aminoacylation ribozyme variant]
experimental endpoint: self-aminoacylation
numeric result: 16.9

ordered residues: CUACUUCUAACAAUCGGUCUC [Fam1A.1 aminoacylation ribozyme variant]
experimental endpoint: self-aminoacylation
numeric result: 0.799

Shift focus to the following entry.
Query: Tell me its self-aminoacylation given AUUGCCCUCGUCAUCGAGUGA [Fam2.1 aminoacylation ribozyme variant] as the entry.
Reply: 17.4
